Target: T1, human CD37 (human, UniProt P11049 1-281)
T1 construct: whole, on cells; also called CD37 antigen
T1 sequence (looked up): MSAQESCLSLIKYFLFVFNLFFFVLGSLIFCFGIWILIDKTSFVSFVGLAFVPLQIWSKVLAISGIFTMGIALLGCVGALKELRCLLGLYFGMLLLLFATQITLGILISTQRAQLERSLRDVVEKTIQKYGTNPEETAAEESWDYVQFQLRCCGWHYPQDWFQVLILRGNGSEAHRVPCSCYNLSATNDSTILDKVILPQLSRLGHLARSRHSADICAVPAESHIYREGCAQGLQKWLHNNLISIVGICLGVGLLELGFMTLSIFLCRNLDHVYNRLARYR
Assay: competitive radioligand binding on Ramos cells against 177Lu-NNV009 (2.7 nM), gamma counting
observation.type: EC50

Some solved cases for reference:
AH02871 (antibody, human IgG1, kappa, V domains shown, Humanized IgG1 kappa; also called NNV026; NNV020 #1) VH: QVQLVQSGAEVVKPGASVKVSCKASGYSFTDYNMYWVKQAPGQRLEWMGYIDPYNGDTTYNQKFKGRVTITRDTSASTAYMELSSLRSEDTAVYYCARSPYGHYAMDYWGQGTLVTVSS VL: DIQMTQSPSSLSASVGDRVTITCKASQDVSTAVDWYQQKPGKAPKLLINWASTRHTGVPSRFSGSGSGTDYTLTISSMQPEDFATYYCRQHYSTPFTFGQGTKLEIKR
1.17 nM
AH02886 (antibody, human IgG1, kappa, V domains shown, Humanized IgG1 kappa; also called NNV027; NNV020 #5) VH: QVQLVQSGAELKKPGASVKVSCKASGYSFTDYNMYWVKQAPGQRLEWMGYIDPYNGDTTYNQKFKGRVTLTVDTSASTAYMELSSLRSEDTAVYYCARSPYGHYAMDYWGQGTLVTVSS VL: DIQMTQSPSSLSTSVGDRVTITCKASQDVSTAVDWYQQKPGKAPKLLINWASTRHTGVPSRFSGSGSGTDYTLTISSLQPEDFATYYCRQHYSTPFTFGQGTKLEIKR
1.16 nM

Okay, next one:
## Task Fill in: EC50 of AH02895 (antibody, human IgG1, kappa, V domains shown, Humanized IgG1 kappa; also called NNV020 #6) VH: QIQLVQSGAEVVKPGASVKVSCKASGYSFTDYNMYWVKQAPGQRLEWMGYIDPYNGDTTYNQKFKGRATITRDTSASTAYIELSSLRSEDTAVYYCARSPYGHYAMDYWGQGTLVTVSS VL: DIQMTQSPSSLSASVGDRVTITCKASQDVSTAVDWYQQKPGKAPKLLINWASTRHTGVPSRFSGSGSGTDYTLTISSMQPEDFATYYCRQHYSTPFTFGQGTKLEIKR is ___
## Result 0.718 nM
